- System: MS2 coat protein
- PROCEDURE SUMMARY: apparent KD of MS2 coat protein; designed switch direction (-1 OFF switch, 1 ON switch): -1; higher = weaker reporter binding
- ASSAY SETUP: input ligand: FMN 200 uM
QUANTITY KIND: apparent KD of MS2 coat protein (nM)
One number for each entry, in nM.

Could you report apparent KD of MS2 coat protein for every entry in the following list?
1. GAAUAGGCAGGAUAUACAUGAGGAUCACCCAUGUGCUUGCGAUAGGCACGUGAACAACGUAGAAGGGCCUUAAC [ChP 13.04.2015 #12] (Eterna round: R96, puzzle: Exclusion 3)
2. GGCCGGCGAGGAUAUACCGAAUGAAGGUGAUAUGAAUGAUUACAUGAGGAUCACCCAUGUAGAAGGCGCCGGCC [Default title] (Eterna round: R97, puzzle: Exclusion 2)
3. UUUUGUUUGCGAGGAUAUGCUUUUAGUAAGUUAGCAGAAGGCGCGUUACAUAGAACCUCUUGUUACAUGAGGAUCACCCAUGUU [JR_ExcNG1_Sub036] (Eterna round: R96, puzzle: Exclusion NG 1)
4. CGAUCACAUGAGGAUCACCCAUGUCAGGAUAUCGUCCAUAGGAAACAACCCUUCGAGGCGAGAAGGGACAAUCG [Eternabot (Original) Solution 29] (Eterna round: R97, puzzle: Exclusion 1)

Output line:
1: 184; 2: 327; 3: 179; 4: 46.9

Please supply apparent KD of MS2 coat protein for each of the following items, keeping them in order.
1. AGCUGUGGCCGAGGAUAUCCACAUGAGGAUCACCCAUGUUGAUACGCCGUUAAAGGCGAUAUAAGGGAGAAGGCGGUCUCAGCA [Eli eng2 - 051] (Eterna round: R96, puzzle: Exclusion NG 2)
2. GAGUACUCAGGAUAUGCAUGAGUAGUGAUGUAGAGAGUGUGACAUGAGGAUCACCCAUGUAGAAGGGAGGAAUG [Version #1] (Eterna round: R97, puzzle: Exclusion 2)
3. AGUACUAUCACGAAAGUGAUAGUACAACGAGCUUGUGAAACAUGAGGAUCACCCAUGUCCUCAUGAGUUCGUCUUAU [JL turnoff v2 67] (Eterna round: R96, puzzle: Sensor v2, turn-off variant 2)
4. GCAGCAUAGUUUACUAACUGUUACAUGAGGAUCACCCAUGUUCAGGAUAUGGUCUGGAUUACAGGCCAGAAGGGAGCAAGCUGC [Eli exng3 - 027] (Eterna round: R96, puzzle: Exclusion NG 3)
5. GCUGGAAAAGGAUAUACAUAACGUGCGUCGGCACGAGACCUACAUGAGGAUCACCCAUGUAGAAGGUUUCCAGC [EX2 #74] (Eterna round: R97, puzzle: Exclusion 2)
6. AGGUGCUUCUGGAGACAUGAGGAUCACCCAUGUUGAGUUAGCGAGGAUAUCGGUAAUGCAUGUGAUGAGAAGGCGCAAACCGAU [Ex NG3 #48] (Eterna round: R96, puzzle: Exclusion NG 3)
7. AGCAGGCAUUCCUCUGGACACAUGAGGAUCACCCAUGUUCGUCGCUCGCAGCGUUGAGGCAUUACCCUUAACGCUUU [Eternabot (Original) Solution 29] (Eterna round: R97, puzzle: Sensor, turn-off variant 1)

Output line:
[12.5, 338, 13.9, 13.3, 20.9, 36.8, 52.5]

Required: apparent KD of MS2 coat protein, one value per sequence below.
1. CGUAAGUGAGGAUAUCGUAGAGGAGACAUGAGGAUCACCCAUGUGUCAAGCGGUCCCGAAUGAGAAGGCACUGGUU [EX5 B.25] (Eterna round: R97, puzzle: Exclusion 5)
2. GCCGGAUUUGUGAGGAUAUACCUAUGGAUACAUAGGUAGAAGGCACAUGAGGAUCACCCAUGUACCUCUCCGGC [JL-BMX4-4.19 Eli mod] (Eterna round: R97, puzzle: Brourd's mod of Exclusion 4)
3. GACUAGGGAGGAUAUAUUUGCAGUGUACCUCGGGUGAUCGCACUUGAGGAUCACCCAAGUAGAAGGCUCGAGGG [EX2 #26] (Eterna round: R97, puzzle: Exclusion 2)

Output line:
[21.5, 91.9, 41.9]

Each of the following entries comes with a recorded value; kindly state apparent KD of MS2 coat protein for each.
1. CCCAUGCCCGAGGAUAUGCUGUACAAAAGUACUGCAGAAGGCGGGACAUGAGGAUCACCCAUGUGGCGAAAGCC [Omei Ex G7] (Eterna round: R97, puzzle: Exclusion 6)
2. AUCUGCACGCUGCGGUCCUACAUGAGGAUCACCCAUGUGGUCUGGUGGCGUGGGUCGCCGGACUUGGCUCGUCUUGA [salish99_S_TOV1_R5_043] (Eterna round: R97, puzzle: Sensor, turn-off variant 1)
3. ACAAAGGACAUGAGGAUCACCCAUGUGGUGCACAAGUCCAGCAAGGAUAUCCAAGUCCCAUAAACGGAGAAGGUGCAUAAUAAG [Inesxeed] (Eterna round: R96, puzzle: Exclusion NG 3)

Output line:
1. 11.5
2. 18.1
3. 283

Record apparent KD of MS2 coat protein for all entries; do not skip any.
1. AAUCGGUGAGGAUAUCUAUUGCGGGAGGAAAUUCGCGAAACGGAGAAGGCACAUGAGGAUCACCCAUGUGAAUC [EX4 C.18] (Eterna round: R97, puzzle: Exclusion 4)
2. GGUGCCCGACAAGGAUAUAAGAUACAGAAAACCUUAGAAGGUGUCACAUGAGGAUCACCCAUGUGGUCCGGCACCAAUAACUCC [Inedraor] (Eterna round: R96, puzzle: Exclusion NG 1)

Output line:
25.7
58.9
